Data credit: ChEMBL document CHEMBL5365484

- TGT: G-protein coupled receptor 55 (Homo sapiens)
- Sequence (Q9Y2T6 whole entry): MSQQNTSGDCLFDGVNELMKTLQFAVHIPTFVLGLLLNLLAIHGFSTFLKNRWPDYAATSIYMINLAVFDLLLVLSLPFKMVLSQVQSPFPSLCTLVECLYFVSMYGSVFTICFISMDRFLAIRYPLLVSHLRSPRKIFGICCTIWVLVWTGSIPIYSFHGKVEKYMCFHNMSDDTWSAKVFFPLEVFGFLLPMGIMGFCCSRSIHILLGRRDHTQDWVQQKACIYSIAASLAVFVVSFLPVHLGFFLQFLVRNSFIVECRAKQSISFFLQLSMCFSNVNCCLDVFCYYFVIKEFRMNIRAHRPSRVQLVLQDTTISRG
- EXPERIMENT DESCRIPTION: Agonist activity at human GPR55 expressed in human HEK293 cells assessed as effect on calcium flux incubated for 5 mins by FLIPR analysis
For each entry below, report its pEC50 value.
Remember, pEC50 is on a log scale: it is -log10 of the molar concentration.

Q: Which pEC50 value is on record for "C[C@@H](Nc1cnc(-c2cncc(CC(F)F)c2)cn1)c1ccc(F)cc1" ?
A: 9.36

Q: Would you mind telling me what pEC50 value was observed for "C[C@@H](Nc1ccc(-c2cncc(C3CC3)c2)cn1)c1ccc(F)cc1" ?
A: 7.86

Q: What value of pEC50 has been recorded for this entry: "C[C@@H](Nc1ccc(-c2cnn(C)c2)cn1)c1ccc(F)cc1"
A: 6.37

Q: Would you kindly share the measured pEC50 for "C[C@@H](Nc1ccc(-c2ccc3oc(=O)[nH]c3c2)cn1)c1ccc(F)cc1" ?
A: 6.24

Q: Field request: pEC50 | item: "C[C@@H](Nc1ccc(-c2cncc(S(C)(=O)=O)c2)cn1)c1ccc(F)cc1"
A: 7.07

Q: If you can, please state the reported pEC50 value of "CCc1cncc(-c2cnc(N[C@H](C)c3ccc(F)cc3)cn2)c1" .
A: 8.52
